ASSAY_COMMENT: Metabolic stability in human liver microsomes assessed as hepatic extraction ratio at 1 uM incubated upto 60 mins by LC-MS/MS analysis
Format: ADME, Microsome
TEST_PARAMETERS: read-out: ERH
REPORTED_ENDPOINT: hepatic extraction ratio at 1 h, 1 µM

| MOLECULE | hepatic extraction ratio at 1 h, 1 µM |
| --- | --- |
| CCOC(=O)N1CCC(CN(Cc2ccc(Cl)cc2)Cc2ccc([N+](=O)[O-])s2)C1 (stereo not drawn) [SR9009] | 0.97 |
| O=C(C1CC1)N1CCC(CN(Cc2ccc([N+](=O)[O-])s2)Cc2ccc(F)cc2F)C1 (stereo not drawn) | 0.97 |
| O=C(C1CC1)N1CCC(CN(Cc2ccc(Cl)c(Cl)c2)Cc2ccc([N+](=O)[O-])s2)C1 (stereo not drawn) | 0.96 |
